B1: Flag-CNK^2–549 [Drosophila] / Myc-MEK [Drosophila] (parent)
chain 1: MSKNKLNLVLPPVNTEATVAAATVAPTPPFKTPSGTDTHSLLGKPKTSIDALTETLEGLDMGDTERKRIKMFLSQKEKIGELSDEDLEKLGELGSGNGGVVMKVRHTHTHLIMARKLIHLEVKPAIKKQILRELKVLHECNFPHIVGFYGAFYSDGEISICMEYMDGGSLDLILKRAGRIPESILGRITLAVLKGLSYLRDNHAIIHRDVKPSNILVNSSGEIKICDFGVSGQLIDSMANSFVGTRSYMSPERLQGTHYSVQSDIWSLGLSLVEMAIGMYPIPPPNTATLESIFADNAEESGQPTDEPRAMAIFELLDYIVNEPPPKLEHKIFSTEFKDFVDICLKKQPDERADLKTLLSHPWIRKAELEEVDISGWVCKTMDLPPSTPKRNTSPN
chain 2: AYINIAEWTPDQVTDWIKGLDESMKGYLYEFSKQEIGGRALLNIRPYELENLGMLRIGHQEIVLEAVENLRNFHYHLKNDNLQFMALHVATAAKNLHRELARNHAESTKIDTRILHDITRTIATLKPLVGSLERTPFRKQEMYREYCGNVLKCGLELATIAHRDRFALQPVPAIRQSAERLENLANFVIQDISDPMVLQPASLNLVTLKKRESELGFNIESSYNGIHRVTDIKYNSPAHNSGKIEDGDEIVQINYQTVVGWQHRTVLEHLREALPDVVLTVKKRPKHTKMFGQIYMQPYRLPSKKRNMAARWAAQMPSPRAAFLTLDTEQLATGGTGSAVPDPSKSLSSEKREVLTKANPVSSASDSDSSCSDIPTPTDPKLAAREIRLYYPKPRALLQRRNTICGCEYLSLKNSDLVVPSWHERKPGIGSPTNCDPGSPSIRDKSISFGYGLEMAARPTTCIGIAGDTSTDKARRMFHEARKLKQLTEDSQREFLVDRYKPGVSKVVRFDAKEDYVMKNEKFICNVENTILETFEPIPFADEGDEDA

- Variants of: B1
- Protocol text: GST pull-down, immunoblot quantification
- Settings: with Myc-MEK [Drosophila]; S2 cells; GST-HYP + RRKM co-expressed; captured via GST-HYP; anti-Myc (MEK) blot; parent: 1
Reported endpoint: ratio to parent

Field: example entries. Status: answers known.
chain 2 E249R = 0.76
chain 2 D80R K282D = 0.34
chain 2 A66F F73R = 0.48
chain 2 A66F = 1.08
chain 2 F73R V251R = 0.5
chain 2 D80R = 0.9
chain 2 F73R = 0.82
chain 2 F73R E249R = 0.13
chain 2 K282D = 0.1

a: chain 2 E249R V251R
b: chain 2 V251R
Q: Sort a and b by ratio to parent descending and give the first. Which one? Tell me its label.
A: b

Values from paper PMC11257983
